// values below are reported binding signal
Target: T1, Drp53 (Danio rerio, UniProt P79734 1-373)
T1 sequence: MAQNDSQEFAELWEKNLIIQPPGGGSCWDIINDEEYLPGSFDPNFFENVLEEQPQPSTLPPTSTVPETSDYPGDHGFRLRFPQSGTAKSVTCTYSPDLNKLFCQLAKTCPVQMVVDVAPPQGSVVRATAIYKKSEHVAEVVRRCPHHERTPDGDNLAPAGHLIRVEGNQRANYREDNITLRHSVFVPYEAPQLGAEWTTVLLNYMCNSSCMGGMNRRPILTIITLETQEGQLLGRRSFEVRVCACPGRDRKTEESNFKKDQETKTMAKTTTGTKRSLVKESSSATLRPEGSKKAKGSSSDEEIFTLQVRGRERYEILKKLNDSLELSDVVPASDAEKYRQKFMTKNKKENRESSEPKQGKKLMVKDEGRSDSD
Experiment: anisotropy competition; 25 mM NaPi, 225 mM NaCl, 10% v/v glycerol, 5 mM DTT, 0.2 mg/mL BSA, 22°C; 20 nM labelled DNA; pH not stated for the binding assay
Details: protein: recombinant; tags: N-terminal 6xHis-lipoyl-TEV tag, cleaved; chain copies: 4

Recorded results for 3 binders are shown here.
Binder	binding signal
G2C (dsDNA) DNA 1: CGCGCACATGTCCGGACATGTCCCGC DNA 2: GCGGGACATGTCCGGACATGTGCGCG	0.41 ΔlogKd vs ref
A5C (dsDNA) DNA 1: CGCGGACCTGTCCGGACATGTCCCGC DNA 2: GCGGGACATGTCCGGACAGGTCCGCG	0.77 ΔlogKd vs ref
T6C (dsDNA) DNA 1: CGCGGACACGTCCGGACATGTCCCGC DNA 2: GCGGGACATGTCCGGACGTGTCCGCG	0.65 ΔlogKd vs ref

Attention now turns to another entry.
Input: Suppose we examine the binder G7C (dsDNA) DNA 1: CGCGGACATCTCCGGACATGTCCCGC DNA 2: GCGGGACATGTCCGGAGATGTCCGCG ; what binding signal value has been reported?
Output: 1.3 ΔlogKd vs ref
